# Tested on: HepG2 (hepatocellular carcinoma) cell line
# METHOD_SUMMARY: CellTiter-Glo luminescent cell viability assay, HepG2
# Type: cell-based, human
# STUDY_CONDITIONS: Homo sapiens, HepG2; HepG, compound at 4 μM, 72 h
Field 'label' (enum: criterion met / criterion not met). Set to criterion met when viability at 4 µM is strictly under 60%; else criterion not met.

The examples below pair each entry with its known result.
| MOLECULE | CLASS_LABEL |
| --- | --- |
| CN(C)C1CCCN(c2c(C#N)c(NCc3ccc(Cl)cc3)nc3ccccc23)C1 (centres unmarked) [Compound 3164CN] | criterion not met |
| COc1ccc(OC2CCN(c3c(C#N)c(NCc4ccc(Cl)cc4)nc4ccccc34)C2)cc1 (centres unmarked) [Compound 3334CN] | criterion not met |
| N#Cc1c(NCc2ccc(Cl)cc2)nc2ccccc2c1N1CCC(Oc2ccccc2)C1 (centres unmarked) [Compound 3330CN] | criterion not met |
| CC(C)(C)NC1CCN(c2c(C#N)c(Nc3ccc(Cl)cc3)nc3ccccc23)CC1 [Compound 3258CN] | criterion met |
| CC(C)NC1CCCN(c2c(C#N)c(NCc3ccc(Cl)cc3)nc3ccccc23)C1 (centres unmarked) [Compound 3160CN] | criterion not met |

Report whether reported viability at 4 µM is lower than 60% (strictly) for Cc1nnc(Nc2nc3ccccc3c(N3CCC(NC(C)(C)C)CC3)c2C#N)o1 [Compound 3272CN]
criterion not met

Find out if reported viability at 4 µM for Cc1ccnc(Nc2ccc(Nc3nc4ccccc4c(N4CCC(NC(C)(C)C)CC4)c3C)cc2)n1 [Compound 532Me] is less than 60%
criterion met

Given N#Cc1c(NCc2ccc(Cl)cc2)nc2ccccc2c1N1CCC(Oc2cccc(F)c2)C1 (centres unmarked) [Compound 3340CN] , is recorded viability at 4 µM strictly lower than 60%?
criterion not met

* * *

# System: A375 (malignant melanoma) cell line
# METHOD_SUMMARY: CellTiter-Glo luminescent cell viability assay, A375
# Assay type: cell-based, human
# STUDY_CONDITIONS: Homo sapiens, A-375; A375 cell line; 72 h incubation; CellTiter-Glo; read-out: EC50, growth inhibition of A375
pEC50: −log10 of the molar value. Structures can show the parent of a compound that is named as a salt.
ASSAY_METRIC: pEC50

| MOLECULE | pEC50 |
| --- | --- |
| CC(C)NC1CCCN(c2c(C#N)c(NCc3ccc(Cl)cc3)nc3ccccc23)C1 (stereo not shown) [Compound 3160CN] | 5.30 to 6.30 |
| CN1CCN(C2CCN(c3c(C#N)c(NCc4ccc(Cl)cc4)nc4ccccc34)C2)CC1 (stereo not shown) [Compound 3200CN] | 5.00 to 5.30 |
| CC(C)NC1CCN(c2c(C#N)c(NCc3ccc(Cl)cc3)nc3ccccc23)CC1 [Compound 3174CN] | 5.30 to 6.30 |

Read the next record carefully.
Here OC[C@H]1CCCN1c1cc(NCc2ccc(Cl)cc2)nc2ccccc12 [Compound 2380, hydrochloride] was tested on A375 (malignant melanoma) cell line, and its pEC50 came to 5.30 to 6.30

* * *

# Test system: HCT-116 (colorectal carcinoma) cell line
# METHOD_SUMMARY: CellTiter-Glo luminescent cell viability assay, HCT-116
# Assay type: cell-based, human
# STUDY_CONDITIONS: Homo sapiens; HCT-116, compound at 10 μM, 72 h
ASSAY_METRIC: viability at 10 µM (%)
Lab book: enter the figure in %, no units written.

Examples with answers:
| MOLECULE | viability at 10 µM [%] |
| --- | --- |
| N#Cc1c(NCc2ccc(Cl)cc2)nc2ccccc2c1N1CCC(N2CCCC2)CC1 [Compound 200CN] | 0.5 |
| Cc1cc(C)nc(Nc2ccc(Nc3nc4ccccc4c(N4CCC(NC(C)(C)C)CC4)c3C#N)cc2)n1 [Compound 3276CN] | 0.9 |
| Cc1ccc(CNc2nc3ccccc3c(N3CCC(NC(C)(C)C)CC3)c2C#N)cc1 [Compound 3288CN] | 0.2 |
| CC(C)(C)NC1CCN(c2c(C#N)c(NCc3cccnc3)nc3ccccc23)CC1 [Compound 3304CN] | 41.6 |
| CC(C)(C)NC1CCN(c2c(C#N)c(NCc3ccc(F)cc3)nc3ccccc23)CC1 [Compound 240CN] | 0.3 |

// CC(C)(C)NC1CCN(c2c(C#N)c(Nc3ccccc3C(F)(F)F)nc3ccccc23)CC1 [Compound 3254CN] : viability at 10 µM value = 0.2

Entry under test: CC(C)(C)NC1CCN(c2c(C#N)c(Nc3ccc(F)c(F)c3)nc3ccccc23)CC1 [Compound 3264CN] . Its viability at 10 µM was 0.3

The measured viability at 10 µM associated with Cc1cc(OC2CCN(c3c(C#N)c(NCc4ccc(Cl)cc4)nc4ccccc34)CC2)no1 [Compound 2978CN] reads 50.1

* * *

# Tested on: Huh7 (hepatocellular carcinoma) cell line
# METHOD_SUMMARY: CellTiter-Glo luminescent cell viability assay, Huh7
# Assay type: cell-based, human
# STUDY_CONDITIONS: Homo sapiens, Huh-7; Huh7, compound at 10 μM, 72 h
ASSAY_METRIC: viability at 10 µM

| MOLECULE | ASSAY_METRIC | VALUE |
| --- | --- | --- |
| N#Cc1c(NCc2ccc(Cl)cc2)nc2ccccc2c1N1CCC(Oc2ccc(F)cc2)CC1 [Compound 2942CN] | viability at 10 µM | 87.9% |
| N#Cc1c(NCc2ccc(Cl)cc2)nc2ccccc2c1N1CCCC(N2CCCC2)C1 (centres unmarked) [Compound 176CN] | viability at 10 µM | 64.7% |
| N#Cc1c(NCc2ccc(Cl)cc2)nc2ccccc2c1N1CCC(NC2CCCC2)CC1 [Compound 3178CN] | viability at 10 µM | 0.6% |
| CN(C)C1CCN(c2c(C#N)c(NCc3ccc(Cl)cc3)nc3ccccc23)CC1 [Compound 3184CN] | viability at 10 µM | 0.6% |

The molecule listed as COc1cc(C)nc(Nc2ccc(Nc3nc4ccccc4c(N4CCC(NC(C)(C)C)CC4)c3C#N)cc2C)n1 [Compound 510CN] shows viability at 10 µM equal to 0.3%

Field viability at 10 µM (entry CN1CCN(C2CCCN(c3c(C#N)c(NCc4ccc(Cl)cc4)nc4ccccc34)C2)CC1 (centres unmarked) [Compound 3168CN] ) reads 0.7%

Note to self: viability at 10 µM recorded for Cc1ccc2c(N3CCC(NC(C)(C)C)CC3)c(C#N)c(NCc3ccc(Cl)cc3)nc2c1 [Compound 416CN] was 0.6%

Reported viability at 10 µM ( Cc1nc(Nc2nc3ccccc3c(N3CCC(NC(C)(C)C)CC3)c2C#N)n(C)n1 [Compound 3274CN] ) = 75%

* * *

# Tested on: HCT-116 (colorectal carcinoma) cell line
# METHOD_SUMMARY: CellTiter-Glo luminescent cell viability assay, HCT-116
# Format: cell-based, human
# STUDY_CONDITIONS: Homo sapiens; HCT-116, compound at 10 μM, 72 h
# viability at 10 µM per record follows
Report as a plain number; the unit % is understood.

Recorded results for 3 compounds are shown here.
| COMPOUND | VALUE |
| --- | --- |
| Cc1nccnc1OC1CCN(c2c(C#N)c(NCc3ccc(Cl)cc3)nc3ccccc23)CC1 [Compound 2970CN] | 47 |
| CC(C)(C)NC1CCN(c2c(C#N)c(NCc3ccc4c(c3)OCO4)nc3ccccc23)CC1 [Compound 3300CN] | 0.2 |
| Cc1ccc(OC2CCCN(c3c(C#N)c(NCc4ccc(Cl)cc4)nc4ccccc34)C2)cc1 (centres unmarked) [Compound 3234CN] | 90.7 |

According to the records, this compound N#Cc1c(NCc2ccc(Cl)cc2)nc2ccccc2c1N1CCC(Oc2ccncc2)C1 (centres unmarked) [Compound 3344CN] displays viability at 10 µM of 48

Notebook: COc1ccc(OC2CCCN(c3c(C#N)c(NCc4ccc(Cl)cc4)nc4ccccc34)C2)cc1 (centres unmarked) [Compound 3232CN] , viability at 10 µM read as 82.9

For reference, reported viability at 10 µM for N#Cc1c(NCc2ccc(Cl)cc2)nc2ccccc2c1N1CCC(Oc2ccc(Cl)cc2)CC1 [Compound 3226CN] stands at 86.8

# compound N#Cc1c(NCc2ccc(Cl)cc2)nc2ccccc2c1N1CCCC(N)C1 (centres unmarked) [Compound 3156CN] ; its viability at 10 µM = 0.5

Form: compound = CC(C)(C)OC(=O)NC1CCN(c2c(C#N)c(NCc3ccc(Cl)cc3)nc3ccccc23)CC1 [Compound 182CN] ; viability at 10 µM = 47.7

* * *

# Test system: PANC-1 (prancreatic carcinoma) cell line
# METHOD_SUMMARY: CellTiter-Glo luminescent cell viability assay, PANC-1
# Format: cell-based
# STUDY_CONDITIONS: Homo sapiens; PANC-1, 10 μM, 72 h, % of signal of diluent-treated cultures
# label = y if viability at 10 µM < 2% else n

// known answers, use as guide
| COMPOUND | CLASS_LABEL |
| --- | --- |
| N#Cc1c(NCc2ccc(Cl)cc2)nc2ccccc2c1N1CCC(N)C1 (centres unmarked) [Compound 3190CN] | n |
| N#Cc1c(NCc2ccc(Cl)cc2)nc2ccccc2c1N1CCC(NC2CCOCC2)C1 (centres unmarked) [Compound 136CN] | n |
| Cc1nc(Nc2nc3ccccc3c(N3CCC(NC(C)(C)C)CC3)c2C#N)n(C)n1 [Compound 3274CN] | n |

Could you please tell me whether viability at 10 µM recorded for CC(C)(C)NC1CCN(c2c(C#N)c(Nc3ccc(F)c(F)c3)nc3ccccc23)CC1 [Compound 3264CN] is less than 2%?
n

For this compound, is viability at 10 µM lower than 2%? N#Cc1c(NCc2ccc(Cl)cc2)nc2ccccc2c1N1CCCC(NC2CCCC2)C1 (centres unmarked) [Compound 162CN]
y
